Cited source for all entries: the supplement of paper PMC11246515

Some sequences, each annotated with its measured total protein half-life in vivo.
# Experiment summary: total protein half-life in vivo (active degradation + dilution); higher = more stable protein
# Experimental parameters: wild type E. coli NCM3722; growth: C-lim chemostat; doubling time 3 h
Observed property: total protein half-life in vivo (h)

| Sequence | Result units | Measured |
| --- | --- | --- |
| MSNLSPDFVLPENFCANPQEAWTIPARFYTDQNAFEHEKENVFAKSWICVAHSSELANANDYVTREIIGESIVLVRGRDKVLRAFYNVCPHRGHQLLSGEGKAKNVITCPYHAWAFKLDGNLAHARNCENVANFDSDKAQLVPVRLEEYAGFVFINMDPNATSVEDQLPGLGAKVLEACPEVHDLKLAARFTTRTPANWKNIVDNYLECYHCGPAHPGFSDSVQVDRYWHTMHGNWTLQYGFAKPSEQSFKFEEGTDAAFHGFWLWPCTMLNVTPIKGMMTVIYEFPVDSETTLQNYDIYFTNEELTDEQKSLIEWYRDVFRPEDLRLVESVQKGLKSRGYRGQGRIMADSSGSGISEHGIAHFHNLLAQVFKD [P0ABR7] | h | 0.182 |
| MNEQSQAKSPEALRAMVAGTLANFQHPTLKHNLTTLKALHHVAWMDDTLHVELVMPFVWHSAFEELKEQCSAELLRITGAKAIDWKLSHNIATLKRVKNQPGINGVKNIIAVSSGKGGVGKSSTAVNLALALAAEGAKVGILDADIYGPSIPTMLGAENQRPTSPDGTHMAPIMSHGLATNSIGYLVTDDNAMVWRGPMASKALMQMLQETLWPDLDYLVLDMPPGTGDIQLTLAQNIPVTGAVVVTTPQDIALIDAKKGIVMFEKVEVPVLGIVENMSVHICSNCGHHEPIFGTGGAEKLAEKYHTQLLGQMPLHISLREDLDKGTPTVISRPESEFTAIYRQLADRVAAQLYWQGEVIPGEISFRAV [P0AF08] | h | 2.87 |
| MANNTTGFTRIIKAAGYSWKGLRAAWINEAAFRQEGVAVLLAVVIACWLDVDAITRVLLISSVMLVMIVEILNSAIEAVVDRIGSEYHELSGRAKDMGSAAVLIAIIVAVITWCILLWSHFG [P0ABN1] | h | 3.24 |
